- target or test system: Cannabinoid-1 receptor (CB1R) (Rattus norvegicus)
- Construct: The tissue obtained from the brain of SD rats was homogenized; from tissue; host or cells: brain of SD rats (membrane pellet of the homogenate)
- Sequence (P20272 whole entry): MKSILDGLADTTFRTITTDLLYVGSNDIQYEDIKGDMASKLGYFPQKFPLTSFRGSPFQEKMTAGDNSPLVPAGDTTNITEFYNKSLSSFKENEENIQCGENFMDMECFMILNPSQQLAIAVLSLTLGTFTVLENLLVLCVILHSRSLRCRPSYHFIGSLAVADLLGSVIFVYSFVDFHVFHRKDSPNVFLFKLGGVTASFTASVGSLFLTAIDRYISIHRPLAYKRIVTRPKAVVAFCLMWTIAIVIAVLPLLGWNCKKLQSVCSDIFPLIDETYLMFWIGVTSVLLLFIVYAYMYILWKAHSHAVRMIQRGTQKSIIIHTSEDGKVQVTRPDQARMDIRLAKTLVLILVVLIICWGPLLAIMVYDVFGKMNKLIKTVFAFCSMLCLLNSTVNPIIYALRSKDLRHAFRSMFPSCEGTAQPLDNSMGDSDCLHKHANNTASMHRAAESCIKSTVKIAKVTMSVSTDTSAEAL
- method notes: Cannabinoid-1 receptor (CB1R) binding affinity assay ([3H]CP-55940, rat CB-1 receptor binding protocol)
- run parameters: brain tissue of SD rats, [3H]CP-55940, 30° C. 60 min; read-out: IC50
I'd be grateful if you could share measured pIC50 for these entries.
One number for each entry, as −log10 of the molar value.

Consider the reported pIC50 for these compounds:
Task item: State the recorded pIC50 for this entry: `Cc1c(-c2nnc(-c3cc4ccccc4o3)o2)nn(-c2ccc(Cl)cc2Cl)c1-c1ccc(Cl)cc1`
Reply: 6.48

Task item: Which value of pIC50 has been reported for `CCC1(c2nnc(-c3nn(-c4ccc(Cl)cc4Cl)c(-c4ccc(Cl)cc4)c3C)o2)CC1` in the records?
Reply: 7.90

For each listed entry, give its pIC50.
1. Cc1c(-c2nc(C3CC3)n(C)n2)nn(-c2ccc(Cl)cc2Cl)c1-c1ccc(Cl)cc1
2. Cc1c(-c2nnc(C3CC4CCC3C4)o2)nn(-c2ccc(Cl)cc2Cl)c1-c1ccc(Cl)cc1 (centres unmarked)

Reply:
1. 6.04
2. 7.90

Please give pIC50 for each item listed below.
1. Cc1c(-c2nnc(C3(C#N)CC3)o2)nn(-c2ccc(Cl)cc2Cl)c1-c1ccc(Cl)cc1
2. Cc1c(-c2nnc(C3CCCCC3)s2)nn(-c2ccc(Cl)cc2Cl)c1-c1ccc(Br)cc1
3. Clc1ccc(-c2c(Cn3cncn3)c(-c3nnc(C4(c5ccc(Cl)cc5Cl)CC4)s3)nn2-c2ccc(Cl)cc2Cl)cc1
4. C=CCOC(C)(C)c1nnc(-c2nn(-c3ccc(Cl)cc3Cl)c(-c3ccc(Cl)cc3)c2C)s1
5. COC(=O)NC(C)c1c(-c2nnc(C3(c4ccc(Cl)cc4)CC3)o2)nn(-c2ccc(Cl)cc2Cl)c1-c1ccc(Cl)cc1 (centres unmarked)
6. CCc1c(-c2nnnn2C2CCCC2)nn(-c2ccc(Cl)cc2Cl)c1-c1ccc(Cl)cc1

Reply:
7.02
7.69
7.95
7.21
8.39
7.65
